experiment: compound fluorescence in toxin protease inhibitor counterscreen, primary screen, artefact control for toxin protease inhibitor project, biochemical, multiplex microsphere, HTS (AID 624483); conditions: compound autofluorescence counterscreen, microsphere flow cytometry; stronger effect = higher value
Among all 360,000 compounds or so, about 11,000 (3.1%) were called active. Roughly 2% stayed inconclusive and do not appear here. The entries come from a sample that favours actives as a whole.
Lab note: compare fluorescence intensity against 4000. Equal or greater, write TRUE. Smaller, write FALSE.

Reported fluorescence intensity at or above 4000? COCCCNc1ccn2nc(-c3ccc(CC(C)C)cc3)cc2n1 FALSE

Reported fluorescence intensity at or above 4000? O=C(c1ccc(CN2CCOCC2)cc1)N1CCN(c2ccccc2F)CC1 FALSE

Reported fluorescence intensity at or above 4000? COc1ccc(/C=N/Nc2nc3ccccc3c(=O)[nH]2)cc1 TRUE

Reported fluorescence intensity at or above 4000? Cc1ccc(S(=O)(=O)N2CC[C@H]3[C@@H](C2)C(=O)C[C@@H](c2ccccc2)N3S(=O)(=O)c2ccc(C)cc2)cc1 TRUE

Reported fluorescence intensity at or above 4000? O=C(c1ccc2c(c1)N(Cc1ccc(F)cc1)C(=O)CS2)N1CCOCC1 TRUE

Reported fluorescence intensity at or above 4000? COc1ccc(/C=N/Nc2nc(-c3ccc(C)cc3)c(C#N)c(=O)[nH]2)cc1 FALSE

Reported fluorescence intensity at or above 4000? C=CC[C@@H](Cc1ccc(F)cc1)C(=O)OC[C@H]1CCCN1C(=O)[C@H](CC=C)CC(=O)N(CCO)Cc1ccccc1 FALSE

Reported fluorescence intensity at or above 4000? CC1=C(C(=O)N2CCOCC2)CC(CC(=O)NCC2CCCCC2)C(=O)N1Cc1ccc(F)cc1 (centres undefined) FALSE

Reported fluorescence intensity at or above 4000? COc1ccc(-c2coc3c(C(=O)NC(C)C)cccc23)c(C)c1 FALSE

---

assay: compound fluorescence in toxin protease inhibitor counterscreen, primary screen, artefact control for toxin protease inhibitor project, biochemical, multiplex microsphere, HTS (AID 624483); conditions: compound autofluorescence counterscreen, microsphere flow cytometry
The whole screen tested about 360,000 compounds, of which about 11,000 (3.1%) were called active. Another 2% or so got no clear call; they are omitted. Rule as the data show it: active = fluorescence intensity above about 16000; inconclusive = no clear call, values can overlap the other calls; inactive = below that. The sample holds actives, similar compounds and a random draw of the others, so the mix is not that of the screen.
Answer with one of the outcomes 1 (active), -1 (inactive)

// param item: COC(=O)[C@]12CCCCC=C1N(CCC1=CCCCC1)C(=O)[C@H](CC(=O)N1CCSCC1)C2 ; yields the recorded call -1

// param item: COc1ccc(OC(C)C(=O)Nc2cccnc2)cc1 (stereo unspecified) ; yields the recorded call 1

// param item: CCCOc1ccc(F)cc1-c1cc(C(=O)Nc2ccc(F)cc2)[nH]n1 ; yields the recorded call -1

// param item: COc1ccc(C(=O)CCC(=O)Nc2cccnc2)c(OC)c1 ; yields the recorded call -1

// param item: CC(Oc1ccc(Cl)cc1)C(=O)Nc1ncccn1 (stereo unspecified) ; yields the recorded call -1

// param item: CCOC(=O)c1c(CN2CCOCC2)n(-c2ccccc2)c2ccc(O)cc12 ; yields the recorded call 1

---

assay: compound fluorescence in toxin protease inhibitor counterscreen, primary screen, artefact control for toxin protease inhibitor project, biochemical, multiplex microsphere, HTS (AID 624483); conditions: compound autofluorescence counterscreen, microsphere flow cytometry; stronger effect = higher value
Out of some 360,000 compounds screened, about 11,000 (3.1%) were called active. About 2% were inconclusive and are not listed. Only a selection was taken, and actives are over-represented in it overall.
Lab note: compare fluorescence intensity against 4000. Equal or greater, write label 1. Smaller, write label 0.

Reported fluorescence intensity at or above 4000? COCCOC1CCN(C(=O)c2ccc(OC)c(OC3CCN(C(C)C)CC3)c2)CC1 label 1

Reported fluorescence intensity at or above 4000? c1ccc2c(CSCc3nc4ccccc4[nH]3)cccc2c1 label 1

Reported fluorescence intensity at or above 4000? CCCc1nc2oc3c(OCC)ncnc3c2c2c1COC(C)(C)C2 label 1

Reported fluorescence intensity at or above 4000? CSc1ccc(CN2CCC2(C)C(=O)Nc2ccc(C)c(O)c2)cc1 (stereo not drawn) label 0

Reported fluorescence intensity at or above 4000? CC(C)(O)C#Cc1ncc(C(F)(F)F)cc1Cl label 1

Reported fluorescence intensity at or above 4000? O=C(/C=C/NNC(=O)c1cccc(Br)c1)c1ccccc1 label 0

Reported fluorescence intensity at or above 4000? C=CCn1c(SCC(=O)NCc2ccccc2)nnc1-c1cc(Br)ccc1O label 1

Reported fluorescence intensity at or above 4000? O=C(OCc1nc2ccccc2[nH]1)C1CCCCC1 label 0

Reported fluorescence intensity at or above 4000? c1ccc(-c2nnc(SCc3nc4ccccc4[nH]3)o2)cc1 label 1

Reported fluorescence intensity at or above 4000? c1ccc2cc3[nH]c(CN4CCCCC4)nc3cc2c1 label 1

Reported fluorescence intensity at or above 4000? OC[C@@H]1CN(Cc2ccncc2)C[C@H](n2cnc3c(N4CCN(c5ccccc5)CC4)ncnc32)O1 label 0

Reported fluorescence intensity at or above 4000? CCn1c(SCC(=O)Nc2ccc(Br)cc2)nc2sc3c(c2c1=O)CCN(C)C3 label 1

Reported fluorescence intensity at or above 4000? Clc1ccccc1SCc1nc2ccccc2[nH]1 label 1

Reported fluorescence intensity at or above 4000? CCOC(=O)C1C(=O)C=C(c2ccc(OC)cc2)CC1c1ccco1 (stereo not drawn) label 0

Reported fluorescence intensity at or above 4000? Clc1ccc(-c2nnc(SCc3nc4ccccc4s3)o2)cc1 label 0

Reported fluorescence intensity at or above 4000? COc1ccc(-n2ncc3c(N4CCc5ccccc54)ncnc32)cc1 label 1

Reported fluorescence intensity at or above 4000? CC/C(C)=N/Nc1nc2sc3c(c2c(=O)[nH]1)CC(C)(C)OC3 label 0

Reported fluorescence intensity at or above 4000? O=C(/C=C/NCc1ccc(F)cc1)c1ccccc1 label 0

Reported fluorescence intensity at or above 4000? CCOC(=O)C1C(=O)NC(N2CCN(c3ccccc3)CC2)=NC1c1ccco1 (stereo not drawn) label 1
